Test: Selectivity index, ratio of CC50 for human Caco-2 to IC50 for SARS CoV-2 (01/human/Jan2020/Thailand) infected in African green monkey Vero E6 cells
Format: toxicity
Settings: Caco-2 cells, read-out: Ratio CC50/IC50
ENDPOINT NAME: selectivity ratio
// response body must contain only the number

# selectivity ratio of C=C1CC[C@@H]2[C@](C)(CO)[C@H](O)CC[C@@]2(C)[C@@H]1C/C=C1/C(=O)OC[C@H]1O [ANDROGRAPHOLIDE] = 1540

###

Target: Replicase polyprotein 1ab (Severe acute respiratory syndrome coronavirus 2)
ENDPOINT NAME: IC50

# IC50 of C=C1CC[C@@H]2[C@](C)(CO)[C@H](O)CC[C@@]2(C)[C@@H]1C/C=C1/C(=O)OC[C@H]1O [ANDROGRAPHOLIDE] = 15 µM

###

Assay: Selectivity index, ratio of CC50 for human Calu-3 to IC50 for SARS CoV-2 (01/human/Jan2020/Thailand) infected in African green monkey Vero E6 cells
Type: toxicity
Details: Calu-3 cells, read-out: Ratio CC50/IC50
ENDPOINT NAME: selectivity ratio
// response body must contain only the number

# selectivity ratio of C=C1CC[C@@H]2[C@](C)(CO)[C@H](O)CC[C@@]2(C)[C@@H]1C/C=C1/C(=O)OC[C@H]1O [ANDROGRAPHOLIDE] = 1710

###

Test: Selectivity index, ratio of CC50 for human HK-2 to IC50 for SARS CoV-2 (01/human/Jan2020/Thailand) infected in African green monkey Vero E6 cells
Format: toxicity
Settings: HK-2 cells, read-out: Ratio CC50/IC50
ENDPOINT NAME: selectivity ratio

# selectivity ratio of C=C1CC[C@@H]2[C@](C)(CO)[C@H](O)CC[C@@]2(C)[C@@H]1C/C=C1/C(=O)OC[C@H]1O [ANDROGRAPHOLIDE] = 1000

###

Test: Selectivity index, ratio of CC50 for human SH-SY5Y to IC50 for SARS CoV-2 (01/human/Jan2020/Thailand) infected in African green monkey Vero E6 cells
Type: toxicity
Details: read-out: Ratio CC50/IC50
ENDPOINT NAME: selectivity ratio
// response body must contain only the number

# selectivity ratio of C=C1CC[C@@H]2[C@](C)(CO)[C@H](O)CC[C@@]2(C)[C@@H]1C/C=C1/C(=O)OC[C@H]1O [ANDROGRAPHOLIDE] = 388

###

Reported pIC50 values for the following compounds.
Test system: SARS-CoV-2
Test: Antiviral activity against SARS CoV-2 (01/human/Jan2020/Thailand) infected in African green monkey Vero E6 cells assessed as inhibition of viral replication pre-infected with cells for 2 hrs followed by compound addition and measured after 48 hrs post infection by plague assay
Assay type: functional, organism-based
Conditions: Severe acute respiratory syndrome coronavirus 2, (01/human/Jan2020/Thailand), Vero C1008
Expect pIC50 as a plain number equal to -log10 of the molar concentration.

CCC(CC)COC(=O)[C@H](C)N[P@](=O)(OC[C@H]1O[C@@](C#N)(c2ccc3c(N)ncnn23)[C@H](O)[C@@H]1O)Oc1ccccc1 = 5.58

# pIC50 of C=C1CC[C@@H]2[C@](C)(CO)[C@H](O)CC[C@@]2(C)[C@@H]1C/C=C1/C(=O)OC[C@H]1O [ANDROGRAPHOLIDE] = 6.55

###

Assay: Selectivity index, ratio of CC50 for human HepG2 to IC50 for SARS CoV-2 (01/human/Jan2020/Thailand) infected in African green monkey Vero E6 cells
Type: toxicity
Conditions: read-out: Ratio CC50/IC50
ENDPOINT NAME: selectivity ratio
// response body must contain only the number

# selectivity ratio of C=C1CC[C@@H]2[C@](C)(CO)[C@H](O)CC[C@@]2(C)[C@@H]1C/C=C1/C(=O)OC[C@H]1O [ANDROGRAPHOLIDE] = 2400

###

System: SARS-CoV-2
Experiment: Antiviral activity against SARS CoV-2 (01/human/Jan2020/Thailand) infected in human Calu-3 cells for 2 hrs assessed as inhibition of viral replication measured after 48 hrs post infection by IFA assay
Format: functional, organism-based
Conditions: Severe acute respiratory syndrome coronavirus 2, (01/human/Jan2020/Thailand)
Reported IC50 values for the following compounds.
Report as a plain number; the unit nM is understood.

Worked set:
O=C(Nc1ccc([N+](=O)[O-])cc1Cl)c1cc(Cl)ccc1O [NICLOSAMIDE] = 900
CCC(CC)COC(=O)[C@H](C)N[P@](=O)(OC[C@H]1O[C@@](C#N)(c2ccc3c(N)ncnn23)[C@H](O)[C@@H]1O)Oc1ccccc1 [REMDESIVIR] = 43

Consider the additional compound presented here.
# IC50 of C=C1CC[C@@H]2[C@](C)(CO)[C@H](O)CC[C@@]2(C)[C@@H]1C/C=C1/C(=O)OC[C@H]1O [ANDROGRAPHOLIDE] = 1680

Measured values drawn from ChEMBL document CHEMBL5096173 for this set.
